# Tested on: A549 cells
# testMethodNotes: A549 cell-BALB/c nude mouse subcutaneous tumor transplantation experiment
# Format: in vivo, BALB/c nude mice
# details: A549 model; test compound 0.5 mg/mL at 10 mL/kg tail vein, 5 times a week, 15 times; 5-fu 20 mg/kg twice a week, 6 times
property: average tumor volume at the end of the experiment

Some solved cases for reference:
INSERT INTO assay_data (compound, datavalue) VALUES
  ('C=CC(=O)NCc1c(O)c(O)c(O)c(CNC(=O)C=C)c1C(=O)O', '539.48 mm^3'),
  ('O=c1[nH]cc(F)c(=O)[nH]1 [Compound 5-fu, 5-fluorouracil, reference compound]', '322.03 mm^3'),
  ('Cc1cc(O)c(CNC(=O)CCl)c(C)c1Cl', '559.37 mm^3');

Then this compound:
Challenge: Give me measured average tumor volume at the end of the experiment, please, for this compound: `CC(=O)NCc1c(C)cc(O)c(C)c1C`
Response given: 492.12 mm^3
